test target: MDR1 (ABCB1, P-glycoprotein) (Homo sapiens)
experimental protocol: Activity at MDR1 in human Caco2 cells assessed as efflux ratio of apparent permeability from basolateral to apical side over apical to basolateral side
Type: cell-based
details: Caco-2
Binning rule for recorded efflux ratio: low-valued (below 8), mid-valued (8 to below 10), high-valued (10 or more)

Consider the worked cases shown below.
molecule | test target | classification
CCNC(=O)Nc1ccc(-c2ccc(CN3CCc4cc(OC)c(OC)cc4C3)cc2)cc1 | MDR1 (ABCB1, P-glycoprotein) (Homo sapiens) | mid-valued
COc1cc2c(cc1OC)CN(Cc1ccc(-c3ccc4c(ccn4S(=O)(=O)c4ccccc4)c3)cc1)CC2 | MDR1 (ABCB1, P-glycoprotein) (Homo sapiens) | low-valued
CNC(=O)Nc1ccc(-c2ccc(CN3CCc4cc(OC)c(OC)cc4C3)cc2)cc1 | MDR1 (ABCB1, P-glycoprotein) (Homo sapiens) | high-valued

Incoming: Where would `COc1cc2c(cc1OC)CN(Cc1ccc(-c3ccc4[nH]c(=O)[nH]c4c3)cc1)CC2` land among the classes by reported efflux ratio?
Outgoing: high-valued

Incoming: Which class holds `COc1cc2c(cc1OC)CN(Cc1ccc(-c3ccc(NC(C)=O)cc3)cc1)CC2` ?
Outgoing: high-valued

Incoming: Into which category would you place `CCCNC(=O)Nc1ccc(-c2ccc(CN3CCc4cc(OC)c(OC)cc4C3)cc2)cc1` ?
Outgoing: high-valued

Incoming: Exercise: read the entry `COc1cc2c(cc1OC)CN(Cc1ccc(-c3ccc(NS(C)(=O)=O)cc3)cc1)CC2` and state which class it falls under.
Outgoing: low-valued

Incoming: Consider COc1cc2c(cc1OC)CN(Cc1ccc(-c3ccc4c(c3)C(N3CCc5cc(OC)c(OC)cc5C3)C(=O)N4)cc1)CC2 (centres undefined) . To which efflux ratio class does it belong?
Outgoing: mid-valued

Incoming: Any idea which band `COc1cc2c(cc1OC)CN(Cc1ccc(-c3ccc4[nH]cnc4c3)cc1)CC2` is in?
Outgoing: mid-valued

---

test target: MDR1 (ABCB1, P-glycoprotein) (Homo sapiens, UniProt P08183)
Sequence (P08183 whole entry): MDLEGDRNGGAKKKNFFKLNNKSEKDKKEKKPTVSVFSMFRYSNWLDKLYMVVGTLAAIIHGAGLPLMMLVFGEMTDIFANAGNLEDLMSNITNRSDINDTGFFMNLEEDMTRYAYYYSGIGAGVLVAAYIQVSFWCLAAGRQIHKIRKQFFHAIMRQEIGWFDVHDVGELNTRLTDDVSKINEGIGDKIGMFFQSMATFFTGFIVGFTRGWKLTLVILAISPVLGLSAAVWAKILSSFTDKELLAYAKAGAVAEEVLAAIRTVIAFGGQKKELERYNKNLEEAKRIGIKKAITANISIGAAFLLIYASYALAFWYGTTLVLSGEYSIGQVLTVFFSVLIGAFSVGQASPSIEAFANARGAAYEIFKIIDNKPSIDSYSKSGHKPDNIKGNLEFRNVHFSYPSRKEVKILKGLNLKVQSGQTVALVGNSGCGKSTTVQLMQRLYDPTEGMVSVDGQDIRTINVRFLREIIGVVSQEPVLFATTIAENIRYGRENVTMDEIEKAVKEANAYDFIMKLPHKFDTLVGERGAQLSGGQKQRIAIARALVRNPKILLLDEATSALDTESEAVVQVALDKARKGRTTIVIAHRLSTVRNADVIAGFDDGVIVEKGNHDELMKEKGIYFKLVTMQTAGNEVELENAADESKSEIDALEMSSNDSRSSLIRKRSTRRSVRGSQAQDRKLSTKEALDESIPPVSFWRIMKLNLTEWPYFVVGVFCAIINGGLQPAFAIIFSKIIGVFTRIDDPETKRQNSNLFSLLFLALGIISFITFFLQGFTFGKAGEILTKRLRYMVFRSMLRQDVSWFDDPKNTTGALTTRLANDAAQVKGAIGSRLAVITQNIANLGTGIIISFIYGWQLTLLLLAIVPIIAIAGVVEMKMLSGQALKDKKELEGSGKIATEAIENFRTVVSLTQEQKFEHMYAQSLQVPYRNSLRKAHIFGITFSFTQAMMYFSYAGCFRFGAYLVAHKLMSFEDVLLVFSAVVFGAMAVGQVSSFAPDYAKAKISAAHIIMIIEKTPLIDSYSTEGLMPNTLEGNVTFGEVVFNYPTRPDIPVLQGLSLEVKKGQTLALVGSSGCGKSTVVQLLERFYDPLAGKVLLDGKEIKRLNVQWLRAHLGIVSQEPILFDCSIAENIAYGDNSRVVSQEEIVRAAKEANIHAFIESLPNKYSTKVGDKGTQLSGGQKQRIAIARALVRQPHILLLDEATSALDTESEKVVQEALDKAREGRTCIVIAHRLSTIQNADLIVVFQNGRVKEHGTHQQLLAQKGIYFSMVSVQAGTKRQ
experimental protocol: Activity at MDR1 in human Caco2 cells assessed as efflux ratio of apparent permeability from basolateral to apical side over apical to basolateral side
Assay type: cell-based
details: Caco-2
Listing: efflux ratio of selected compounds

Example compounds with recorded efflux ratio:
input smiles | efflux ratio
COc1cc2c(cc1OC)CN(Cc1ccc(-c3ccc(NC(=O)Nc4ccccc4)cc3)cc1)CC2 | > 20
COc1cc2c(cc1OC)CN(Cc1ccc(-c3ccc(N(S(=O)(=O)c4ccccc4)S(=O)(=O)c4ccccc4)cc3)cc1)CC2 | > 20
COc1cc2c(cc1OC)CN(Cc1ccc(-c3ccc4[nH]ncc4c3)cc1)CC2 | 12
CCCCNC(=O)Nc1ccc(-c2ccc(CN3CCc4cc(OC)c(OC)cc4C3)cc2)cc1 | 12.8

Incoming: Short answer please: efflux ratio, MDR1 (ABCB1, P-glycoprotein) (Homo sapiens, UniProt P08183), entry `COc1cc2c(cc1OC)CN(Cc1ccc(-c3ccc(NC(=O)c4ccccc4)cc3)cc1)CC2`
Outgoing: 19.9

---

test target: Broad substrate specificity ATP-binding cassette transporter ABCG2 (Homo sapiens, UniProt Q9UNQ0)
Sequence (Q9UNQ0 whole entry): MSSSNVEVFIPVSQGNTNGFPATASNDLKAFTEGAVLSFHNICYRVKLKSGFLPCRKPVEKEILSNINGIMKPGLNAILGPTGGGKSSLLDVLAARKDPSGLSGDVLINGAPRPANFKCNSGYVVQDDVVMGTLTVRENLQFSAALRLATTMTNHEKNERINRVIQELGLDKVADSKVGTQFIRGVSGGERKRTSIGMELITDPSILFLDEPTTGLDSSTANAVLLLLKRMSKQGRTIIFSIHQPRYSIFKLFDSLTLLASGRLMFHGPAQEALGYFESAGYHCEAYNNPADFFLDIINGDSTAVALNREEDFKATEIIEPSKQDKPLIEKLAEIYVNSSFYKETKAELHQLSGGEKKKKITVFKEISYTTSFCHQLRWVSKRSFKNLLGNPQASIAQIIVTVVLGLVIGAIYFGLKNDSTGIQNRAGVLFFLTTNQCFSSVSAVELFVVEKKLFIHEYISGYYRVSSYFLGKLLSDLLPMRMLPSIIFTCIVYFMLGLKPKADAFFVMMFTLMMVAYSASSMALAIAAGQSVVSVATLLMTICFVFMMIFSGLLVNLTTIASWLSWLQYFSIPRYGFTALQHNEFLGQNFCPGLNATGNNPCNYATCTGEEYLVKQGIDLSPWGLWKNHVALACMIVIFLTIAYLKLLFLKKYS
experimental protocol: Inhibition of BCRP (unknown origin) expressed in MDCK cells assessed as reduction in Hoechst 33342 efflux preincubated for 30 mins followed by Hoechst 3334 addition measured after 30 mins by fluorescence assay
Format: cell-based
details: read-out: EC50
assay endpoint: EC50 (µM)
Reply numerically in µM, unit not repeated.

molecule | assay endpoint | result value
COc1cc2c(cc1OC)CN(Cc1ccc(-c3ccc4c(c3)C(N3CCc5cc(OC)c(OC)cc5C3)C(=O)N4)cc1)CC2 (configuration not stated) | EC50 | 1.8

Turning now to a further record.
Incoming: EC50 lookup needed for `CCCCNC(=O)Nc1ccc(-c2ccc(CN3CCc4cc(OC)c(OC)cc4C3)cc2)cc1` , thanks.
Outgoing: 46

---

Collected EC50 values appear next to each entry.
test target: UniProt P08183
experimental protocol: Inhibition of MDR1 (unknown origin) expressed in MDCK cells assessed as increase in calcein-AM accumulation after 30 mins by calcein-AM dye based fluorescence assay
Assay type: cell-based
details: read-out: EC50
Form entry: value (nM) — number only.

input smiles | test target | output unit | result value
COc1cc2c(cc1OC)CN(Cc1ccc(-c3ccc4[nH]ncc4c3)cc1)CC2 | UniProt P08183 | nM | 900

Incoming: So what does the record say about EC50 for `COc1cc2c(cc1OC)CN(Cc1ccc(-c3ccc4c(c3)C(=O)C(=O)N4)cc1)CC2` ?
Outgoing: 21400

Incoming: Please look up its EC50: `COc1cc2c(cc1OC)CN(Cc1ccc(-c3ccc4[nH]ccc4c3)cc1)CC2`
Outgoing: 21200

Incoming: Param item = `COc1cc2c(cc1OC)CN(Cc1ccc(-c3ccc4c(c3)CC(=O)N4)cc1)CC2` ; retrieve measured EC50.
Outgoing: 1470

Incoming: For the compound shown here, `COc1cc2c(cc1OC)CN(Cc1ccc(-c3ccc(NC(=O)Nc4ccccc4)cc3)cc1)CC2` , give the reported EC50.
Outgoing: 980

Incoming: What value of EC50 has been reported for the following compound? `COc1cc2c(cc1OC)CN(Cc1ccc(-c3ccc(NC(C)=O)cc3)cc1)CC2`
Outgoing: 1520

Incoming: Give its EC50 value. Item: `CCCNC(=O)Nc1ccc(-c2ccc(CN3CCc4cc(OC)c(OC)cc4C3)cc2)cc1`
Outgoing: 1100

Incoming: Using the record for `COc1cc2c(cc1OC)CN(Cc1ccc(-c3ccc4[nH]c(=O)[nH]c4c3)cc1)CC2` , report its EC50.
Outgoing: 29500

Incoming: Record request: EC50 value, item `COc1cc2c(cc1OC)CN(Cc1ccc(-c3ccc4[nH]cnc4c3)cc1)CC2`
Outgoing: 6930

---

test target: UniProt P08183
experimental protocol: Inhibition of MDR1 (unknown origin) expressed in MDCK cells assessed as increase in calcein-AM accumulation after 30 mins by calcein-AM dye based fluorescence assay
Type: cell-based
details: read-out: EC50
assay endpoint: EC50
Please give the number followed by its unit.

Incoming: Item under review: `CNC(=O)Nc1ccc(-c2ccc(CN3CCc4cc(OC)c(OC)cc4C3)cc2)cc1` . Reported EC50?
Outgoing: 3100 nM

Incoming: Request the reported EC50 associated with COc1cc2c(cc1OC)CN(Cc1ccc(-c3ccc4c(c3)C(N3CCc5cc(OC)c(OC)cc5C3)C(=O)N4)cc1)CC2 (stereo not drawn)
Outgoing: 1200 nM

Incoming: Form field: reported EC50 of `CCNC(=O)Nc1ccc(-c2ccc(CN3CCc4cc(OC)c(OC)cc4C3)cc2)cc1`
Outgoing: 1700 nM

---

test target: ATP-dependent translocase ABCB1 (Homo sapiens, UniProt P08183)
Sequence (P08183 whole entry): as the sequence (P08183 whole entry) above
experimental protocol: Inhibition of MDR1 (unknown origin) expressed in MDCK cells assessed as increase in calcein-AM accumulation after 30 mins by calcein-AM dye based fluorescence assay
Assay type: cell-based
details: read-out: EC50
pEC50: −log10 of the molar value.
Label Yes when pEC50 is at or above 6; anything below gets No.

Study these solved cases before continuing.
input smiles | test target | classification
COc1cc2c(cc1OC)CN(Cc1ccc(-c3ccc(NS(C)(=O)=O)cc3)cc1)CC2 | ATP-dependent translocase ABCB1 (Homo sapiens, UniProt P08183) | No
CCCCNC(=O)Nc1ccc(-c2ccc(CN3CCc4cc(OC)c(OC)cc4C3)cc2)cc1 | ATP-dependent translocase ABCB1 (Homo sapiens, UniProt P08183) | Yes
COc1cc2c(cc1OC)CN(Cc1ccc(-c3ccc(N(S(=O)(=O)c4ccccc4)S(=O)(=O)c4ccccc4)cc3)cc1)CC2 | ATP-dependent translocase ABCB1 (Homo sapiens, UniProt P08183) | Yes

Shifting focus to the compound that follows.
Incoming: hey, is pEC50 for this one >= 6? `COc1cc2c(cc1OC)CN(Cc1ccc(-c3ccc4c(ccn4S(=O)(=O)c4ccccc4)c3)cc1)CC2`
Outgoing: No
